Assay: Quantitative High-Throughput drug screen in 47 multiple myeloma cell lines against the NCATS MIPE library collection: NCIH929_DSMZ cell viability assay (AID 1918978); also: nearly all actives have a fitted effect of over 35% in size
Conditions: NCI-H929 myeloma viability, CellTiter-Glo ATP, 48 h; series mostly up to 45.8 µM
Description: PI: Beverly A. Mock Ph.D. Laboratory of Cancer Biology and Genetics, Center for Cancer Research, National Cancer Institute, National Institute of Health, Bethesda, Maryland […] 5; Detector; 425V; Luminescence; Viewlux PerkinElmer. […] 1. […] Briefly, the corresponding myeloma cell lines were screened in 1,536-well plates with 500 cells, 5-uL per well for inhibition of cell viability (assessed by measuring ATP levels with CellTiterGlo). […]
Inconclusive results are not listed. Activity calls are given as the source filed them. Calls follow the shape of the dose curve; as a rule, active = well fitted cell-killing curve with a large enough effect; inconclusive = small, poorly fitted or top-dose-only effect; inactive = no such curve, though single readings can be large or run the other way.
Log the outcome using a class from active, inactive

Which outcome was entered for the compound C[C@@H]1CC=CC=CC=CC=C[C@@H](O[C@@H]2O[C@H](C)[C@@H](O)[C@H](N)[C@H]2O)C[C@@H]2O[C@](O)(C[C@@H](O)C[C@@H]3O[C@@H]3C=CC(=O)O1)C[C@H](O)[C@@H]2C(=O)O in this test?
active

Which outcome was entered for the compound C[C@@H](O)[C@H]1C(=O)N2C(C(=O)OCOC(=O)C(C)(C)C)=C(SC3CN(C4=NCCS4)C3)[C@H](C)[C@H]12 in this test?
inactive

Which outcome was entered for the compound CCOC(=O)c1c(CSc2ccccc2)n(C)c2cc(Br)c(O)c(CN(C)C)c12 in this test?
inactive

Which outcome was entered for the compound c1ccc(CNc2nc(N3CCOc4ccccc43)nc3c2CCCC3)cc1 in this test?
inactive

Which outcome was entered for the compound Cc1ccc(NC(=O)c2ccc(CN3CCN(C)CC3)cc2)cc1Nc1nc(-c2cccnc2)cs1 in this test?
active

Which outcome was entered for the compound Cc1ccccc1-n1c(Cn2nc(-c3cccc(O)c3)c3c(N)ncnc32)nc2cccc(C)c2c1=O in this test?
active

Which outcome was entered for the compound CC(C)N(CCCNC(=O)Nc1ccc(C(C)(C)C)cc1)C[C@H]1O[C@@H](n2cc(Br)c3c(N)ncnc32)[C@H](O)[C@H]1O in this test?
active

Which outcome was entered for the compound CC(C)C[C@H](NC(=O)c1cc2ccccc2s1)C(=O)N1CCN(C(=O)[C@H](CO)NS(=O)(=O)c2ccc(Cl)cc2Cl)CC1 in this test?
active

Which outcome was entered for the compound CCOC(=O)[C@H](CCc1ccccc1)N[C@@H](C)C(=O)N1CCCC1C(=O)O (stereo not given in full) in this test?
inactive

Which outcome was entered for the compound CC(C)(O)CC(=O)NCCn1ccc2ncnc(Nc3ccc(Oc4cccc(C(F)(F)F)c4)c(Cl)c3)c21 in this test?
active
